Data credit: ChEMBL document CHEMBL2086328

# Experimental Details: Binding affinity to beta-amyloid
Reported Property: Ki (nM)

> print(dat)
                  compound.structure.string  reported.property  unit.abbrev  value.reported
1  CNc1ccc(/C=C/c2ccc(OCCOCCOCC[18F])cc2)cc1                 Ki           nM            2.22

[P] CNc1ccc(/C=C/c2ccc(OCCOCCOCC[18F])nc2)cc1
[Q] CNc1ccc(-c2nc3ccc(O)cc3s2)cc1[18F]
[R] [11CH3]Nc1ccc(-c2nc3ccc(O)cc3s2)cn1
[ask] // ranking: key=Ki, reverse=True Please respond with the labels ordered as the question requires.
[reply] P, R, Q
(P: 2.87 nM, R: 1.7 nM, Q: 0.74 nM)

###

# Experimental Details: Displacement of [125I]IMPY from amyloid beta (1 to 42) after 2 hrs by gamma counting
pKi: −log10 of the molar value.
Reported Property: pKi

[a] CNc1ccc2nc(-c3ccc(OCCF)cc3)cnc2c1
[b] CNc1ccc(/C=C/c2ccc(OCCOCCOCC[18F])nc2)cc1 [FLORBETAPIR F 18]
[c] CNc1ccc2nc(-c3ccc(OCCOCCOCCF)cc3)cnc2c1
[ask] Sort the compounds on pKi; start with the lowest figure. Please respond with the labels ordered as the question requires.
[reply] a, c, b
(a: 8.00, c: 8.28, b: 8.54)
